Overview of recorded activity at 200 µM for various compounds
Tested on: E. coli Hfr recombination
Assay: E. coli Hfr recombination (RecBCD pathway, strain V66 x V1306)
Conditions: Escherichia coli, read-out: Relative recombinant frequency, E. coli Hfr recombination at 200 μM compound, 200 μM; experiment 2 (second value); percentage of that without compound (8.9%)
Measured Quantity: activity at 200 µM (%)

>  <Molecule>
O=C(Nc1cccc(NC(=O)c2ccccc2Cl)c1)c1ccc([N+](=O)[O-])o1

>  <Measured Quantity>
activity at 200 µM

>  <Unit Abbreviation>
%

>  <Value Measured>
55

$$$$
>  <Molecule>
N#Cc1c(NC(=O)c2ccc([N+](=O)[O-])o2)sc2c1CCC2

>  <Measured Quantity>
activity at 200 µM

>  <Unit Abbreviation>
%

>  <Value Measured>
21

$$$$
>  <Molecule>
Cc1cccnc1NC(=O)c1ccc([N+](=O)[O-])o1

>  <Measured Quantity>
activity at 200 µM

>  <Unit Abbreviation>
%

>  <Value Measured>
42

$$$$
>  <Molecule>
CCn1cc(C(=O)O)c(=O)c2cnc(N3CCN(C(=S)Nc4cccc(C(F)(F)F)c4)CC3)nc21

>  <Measured Quantity>
activity at 200 µM

>  <Unit Abbreviation>
%

>  <Value Measured>
10

$$$$
>  <Molecule>
O=C(Nc1ncccn1)c1ccc([N+](=O)[O-])o1

>  <Measured Quantity>
activity at 200 µM

>  <Unit Abbreviation>
%

>  <Value Measured>
5

$$$$

The reported numbers originate from patent US20150126519A1.
